// provenance: ChEMBL document CHEMBL4814077

# study-target: Pre-let-7d miRNA
# run-description: Binding affinity to pre-let-7d miRNA (unknown origin) by SPR assay
*1 amine or outer side, *2 acyl side, *3 side chain or, on linkers, in order; H or OH if unused. Where a SMILES comes first, the peptide text is derived from it. Bridges are numbered along the chain shown (N, C = ends). X1 = CCC(C)CCCCCCCCC(CC(=O)[*:1])O[*:2]; X3 = CC(C)CCCCCCCCC(CC(=O)[*:1])O[*:2]; X2 = CCCCCCCCCCCC(CC(=O)[*:1])O[*:2]; X4 = CCCCCCCCCCC(CC(=O)[*:1])O[*:2]
Attribute: Kd
Express the result in nM but write the number alone.

A selection of reference data follows.
molecule	Kd / nM
CCCCCCCCCCCC1CC(=O)N[C@@H](CCC(=O)O)C(=O)N[C@@H](CC(C)C)C(=O)N[C@@H](CC(C)C)C(=O)N[C@@H](C(C)C)C(=O)N[C@@H](CC(=O)O)C(=O)N[C@@H](CC(C)C)C(=O)N[C@@H](CC(C)C)C(=O)O1 (some centres undefined) (ELLVDLL; linker N-C via X2)	1400
CCC(C)CCCCCCCCC1CC(=O)N[C@@H](CCC(=O)O)C(=O)N[C@@H](CC(C)C)C(=O)N[C@@H](CC(C)C)C(=O)N[C@@H](C(C)C)C(=O)N[C@@H](CC(=O)O)C(=O)N[C@@H](CC(C)C)C(=O)N[C@@H](CC(C)C)C(=O)O1 (some centres undefined) (ELLVDLL; linker N-C via X1)	1200
CCCCCCCCCCC1CC(=O)N[C@@H](CCC(=O)O)C(=O)N[C@@H](CC(C)C)C(=O)N[C@@H](CC(C)C)C(=O)N[C@@H](C(C)C)C(=O)N[C@@H](CC(=O)O)C(=O)N[C@@H](CC(C)C)C(=O)N[C@@H](CC(C)C)C(=O)O1 (some centres undefined) (ELLVDLL; linker N-C via X4)	300

Now take the following molecule into account.
Tell me the measured Kd of CC(C)CCCCCCCCC1CC(=O)N[C@@H](CCC(=O)O)C(=O)N[C@@H](CC(C)C)C(=O)N[C@@H](CC(C)C)C(=O)N[C@@H](C(C)C)C(=O)N[C@@H](CC(=O)O)C(=O)N[C@@H](CC(C)C)C(=O)N[C@@H](CC(C)C)C(=O)O1 (some centres undefined) (ELLVDLL; linker N-C via X3) , please. 2500

* * *

# Test system: microRNA 21
# run-description: Inhibition of Dicer-mediated pre-miRNA-21 (unknown origin) processing using […] as substrate incubated for 15 mins by cat-ELCCA assay
# Type: nucleic-acid assay
Calls of active or inactive are those of the source. The rule behind the calls is not given here. *1 amine or outer side, *2 acyl side, *3 side chain or, on linkers, in order; H or OH if unused. Where a SMILES comes first, the peptide text is derived from it. Bridges are numbered along the chain shown (N, C = ends). The star is where a group is joined. ξ: configuration not given here. Pentadecanoyl(3ξ-OH,15-Gua) = N=C(N)NCCCCCCCCCCCCC(O)CC(=O)*; X2 = CCCCCCCCCCCC(CC(=O)[*:1])O[*:2]
// one of true (1) (active), false (0) (inactive), no free text

compound	study-target	class-assignment
CC1NC(=O)C(CCC(N)=O)NC(=O)C(C(C)O)NC(=O)C(C(C)C)NC(=O)C(C(C)C)NC(=O)C(NC(=O)CC(O)CCCCCCCCCCCCNC(=N)N)C(C)OC1=O (configuration not stated) ({Pentadecanoyl(3ξ-OH,15-Gua)}-TVVTQA; ester 1-C; configuration not given here)	microRNA 21	false (0)

What was the test verdict on CCCCCCCCCCCC1CC(=O)N[C@@H](CCC(=O)O)C(=O)N[C@@H](CC(C)C)C(=O)N[C@@H](CC(C)C)C(=O)N[C@@H](C(C)C)C(=O)N[C@@H](CC(=O)O)C(=O)N[C@@H](CC(C)C)C(=O)N[C@@H](CC(C)C)C(=O)O1 (some centres not stated) (ELLVDLL; linker N-C via X2) ? true (1)

* * *

# System: Pre-let-7d miRNA
# run-description: Inhibition of Dicer-mediated pre-let-7d miRNA (unknown origin) processing using […] as substrate incubated for 15 mins by cat-ELCCA assay
# Assay type: nucleic-acid assay
Calls of active or inactive are those of the source. The calls are words filed in the database; no cut-off is given here. *1 amine or outer side, *2 acyl side, *3 side chain or, on linkers, in order; H or OH if unused. Where a SMILES comes first, the peptide text is derived from it. Bridges are numbered along the chain shown (N, C = ends). X7 = CC(C)CCCCCCCCCC(CC(=O)[*:1])O[*:2]; X3 = CC(C)CCCCCCCCC(CC(=O)[*:1])O[*:2]
Pick one and only one: TRUE for active, FALSE for inactive

compound	class-assignment
CC(C)CCCCCCCCCC1CC(=O)N[C@@H](CCC(=O)O)C(=O)N[C@@H](CC(C)C)C(=O)N[C@@H](CC(C)C)C(=O)N[C@@H](C(C)C)C(=O)N[C@@H](CC(=O)O)C(=O)N[C@@H](CC(C)C)C(=O)N[C@@H](CC(C)C)C(=O)O1 (some centres not stated) (ELLVDLL; linker N-C via X7)	FALSE

So what was the verdict on CC(C)CCCCCCCCC1CC(=O)N[C@@H](CCC(=O)O)C(=O)N[C@@H](CC(C)C)C(=O)N[C@@H](CC(C)C)C(=O)N[C@@H](C(C)C)C(=O)N[C@@H](CC(=O)O)C(=O)N[C@@H](CC(C)C)C(=O)N[C@@H](CC(C)C)C(=O)O1 (some centres not stated) (ELLVDLL; linker N-C via X3) in this test? TRUE

* * *

# study-target: microRNA 21
# run-description: Binding affinity to pre-miRNA-21 (unknown origin) by SPR assay
*1 amine or outer side, *2 acyl side, *3 side chain or, on linkers, in order; H or OH if unused. Where a SMILES comes first, the peptide text is derived from it. Bridges are numbered along the chain shown (N, C = ends). X1 = CCC(C)CCCCCCCCC(CC(=O)[*:1])O[*:2]; X3 = CC(C)CCCCCCCCC(CC(=O)[*:1])O[*:2]; X2 = CCCCCCCCCCCC(CC(=O)[*:1])O[*:2]; X4 = CCCCCCCCCCC(CC(=O)[*:1])O[*:2]
We begin with a simple list: items and their reported Kd.
Give just the numeric value; nM need not be written.

The cases that follow already have their Kd on record.
molecule	reported-measurement
CCCCCCCCCCCC1CC(=O)N[C@@H](CCC(=O)O)C(=O)N[C@@H](CC(C)C)C(=O)N[C@@H](CC(C)C)C(=O)N[C@@H](C(C)C)C(=O)N[C@@H](CC(=O)O)C(=O)N[C@@H](CC(C)C)C(=O)N[C@@H](CC(C)C)C(=O)O1 (some centres undefined) (ELLVDLL; linker N-C via X2)	730
CCC(C)CCCCCCCCC1CC(=O)N[C@@H](CCC(=O)O)C(=O)N[C@@H](CC(C)C)C(=O)N[C@@H](CC(C)C)C(=O)N[C@@H](C(C)C)C(=O)N[C@@H](CC(=O)O)C(=O)N[C@@H](CC(C)C)C(=O)N[C@@H](CC(C)C)C(=O)O1 (some centres undefined) (ELLVDLL; linker N-C via X1)	780
CCCCCCCCCCC1CC(=O)N[C@@H](CCC(=O)O)C(=O)N[C@@H](CC(C)C)C(=O)N[C@@H](CC(C)C)C(=O)N[C@@H](C(C)C)C(=O)N[C@@H](CC(=O)O)C(=O)N[C@@H](CC(C)C)C(=O)N[C@@H](CC(C)C)C(=O)O1 (some centres undefined) (ELLVDLL; linker N-C via X4)	380

Now for the molecule whose Kd we want.
Can you look up Kd on microRNA 21 for CC(C)CCCCCCCCC1CC(=O)N[C@@H](CCC(=O)O)C(=O)N[C@@H](CC(C)C)C(=O)N[C@@H](CC(C)C)C(=O)N[C@@H](C(C)C)C(=O)N[C@@H](CC(=O)O)C(=O)N[C@@H](CC(C)C)C(=O)N[C@@H](CC(C)C)C(=O)O1 (some centres undefined) (ELLVDLL; linker N-C via X3) ? 430
